For reference, the following IC50 results for UniProtKB I3LUI7 were taken from various sources.
Please provide the amount together with its unit, number first.

Solved entries:
compound=CN(CCN(C)c1nccs1)C(=O)C#Cc1cccc(C#N)c1 endpoint_label=IC50 assay_value="87 nM"
compound="Cc1cccc2c1C(C)N(C(=O)C#Cc1cccc(Cl)c1)CC2 (stereo not shown)" endpoint_label=IC50 assay_value="2.6 nM"
compound=CN(CCNC(=O)C#Cc1cccc(Cl)c1)c1ncc(Br)s1 endpoint_label=IC50 assay_value="13 nM"

## Input Short answer please: IC50, UniProtKB I3LUI7, entry "CC(C)(C)Nc1c(-c2ccc(C#Cc3ccccc3)nc2)nc2cnccn12"
## Output 3250 nM

## Input Which measured IC50 belongs to "CN(c1nccs1)C1CN(C(=O)C#Cc2cccc(Cl)c2)C1" , tested on UniProtKB I3LUI7?
## Output 2.2 nM

## Input Param readout = IC50; param system = UniProtKB I3LUI7; param query = "O=C(C#Cc1cccc(Cl)c1)N1CCn2ccnc2C1" ; response: value
## Output 320 nM

## Input Lookup: IC50 / UniProtKB I3LUI7 / "Cc1ncccc1CCN(C)C(=O)C#Cc1cccc(Cl)c1"
## Output 120 nM

## Input Field: IC50 (UniProtKB I3LUI7). Entry: "O=C(C#Cc1ccccc1)N1Cc2ccccc2C1"
## Output 1820 nM

## Input Query the reported IC50 for UniProtKB I3LUI7; item: "O=C(C#Cc1ccccc1)NC1CCN(c2nccs2)CC1"
## Output 7410 nM

## Input Lookup: IC50 / UniProtKB I3LUI7 / "CN(CCNC(=O)C#Cc1cccc(Cl)c1)c1ncc(F)s1"
## Output 16 nM

###

Several reports have described IC50 for mGluR5 receptor (Sus scrofa, UniProt I3LUI7); a selection of those results is presented here.
All answers are understood in µM, so give the number only.

compound=O=C(C#Cc1cccc(Cl)c1)N1CCc2cc(O)c(O)cc2C1 experimental_target="mGluR5 receptor (Sus scrofa, UniProt I3LUI7)" endpoint_label=IC50 u=µM assay_value=2.54
compound=O=C(C#Cc1ccccc1)N1CCc2onc(-c3ccccc3)c2C1 experimental_target="mGluR5 receptor (Sus scrofa, UniProt I3LUI7)" endpoint_label=IC50 u=µM assay_value=2.36
compound="CC1CN(c2nncs2)CCN1C(=O)C#Cc1cccc(Cl)c1 (stereo not shown)" experimental_target="mGluR5 receptor (Sus scrofa, UniProt I3LUI7)" endpoint_label=IC50 u=µM assay_value=0.027
compound=C[C@@H]1CN(c2cscn2)CCN1C(=O)C#Cc1cccc(Cl)c1 experimental_target="mGluR5 receptor (Sus scrofa, UniProt I3LUI7)" endpoint_label=IC50 u=µM assay_value=0.016
compound=CC(C)N(CCc1ccccc1)C(=O)C#Cc1cccc(Cl)c1 experimental_target="mGluR5 receptor (Sus scrofa, UniProt I3LUI7)" endpoint_label=IC50 u=µM assay_value=0.07
compound=CCN(CCNC(=O)C#Cc1cccc(Cl)c1)c1nccs1 experimental_target="mGluR5 receptor (Sus scrofa, UniProt I3LUI7)" endpoint_label=IC50 u=µM assay_value=0.0041
compound=COc1cccc2c1CN(C(=O)C#Cc1cccc(Cl)c1)CC2 experimental_target="mGluR5 receptor (Sus scrofa, UniProt I3LUI7)" endpoint_label=IC50 u=µM assay_value=0.0084
compound=CC(C)(C)CC(C)(C)Nc1c(-c2ccc(C#Cc3ccccc3)s2)nc2ccccn12 experimental_target="mGluR5 receptor (Sus scrofa, UniProt I3LUI7)" endpoint_label=IC50 u=µM assay_value=2.07

## Input Entry "Cc1ccsc1C#Cc1ccc(-c2nc3cnccn3c2NC(C)(C)C)s1" has what IC50?
## Output 0.86

## Input I would be grateful if you could share the reported IC50 for "Cc1cccc(CCNC(=O)C#Cc2cccc(Cl)c2)c1" .
## Output 0.04

###

pIC50: −log10 of the molar value.
Recorded pIC50 for compounds tested on mGluR5 receptor (Sus scrofa, UniProt I3LUI7), drawn from a number of studies.
Lab note: anything with pIC50 at or over 6 counts as 1; the rest go in 0.

Field: example entries. Status: answers known.
given_smiles=CCNc1c(-c2ccc(C#Cc3ccccc3)s2)nc2cnccn12 label_class=0
given_smiles=O=C(C#Cc1cccc(Cl)c1)NCCn1cccc1 label_class=1
given_smiles=O=C(C#Cc1cccc(Cl)c1)NCCc1ccncc1 label_class=0
given_smiles=O=C(C#Cc1cccc(Cl)c1)N1CCc2ccccc2C1 label_class=1
given_smiles=CC(C)(C)Nc1c(-c2ccc(C#Cc3ccncc3)s2)nc2cnccn12 label_class=1
given_smiles=O=C(C#Cc1cccc(Cl)c1)NCCc1ccccc1 label_class=1
given_smiles=CN(CCc1cccnc1)C(=O)C#Cc1cccc(Cl)c1 label_class=1
given_smiles=O=C(C#Cc1ccccc1)N1CCc2ncccc2C1 label_class=0
given_smiles=CN(CCc1ccc(F)cc1)C(=O)C#Cc1cccc(Cl)c1 label_class=1

## Input Item "CC(C)(C)Nc1c(-c2ccc(C#Cc3cccc(CN)c3)s2)nc2cnccn12" with pIC50 of 6 or above?
## Output 1

###

Please find below IC50 data on mGluR5 receptor (Sus scrofa) compiled from the literature.
# note: exactly 30 nM is not below, so it is false (0); use true (1) for IC50 strictly under it

These solved cases illustrate the format of a correct answer.
molecule=O=C(C#Cc1cccc(Cl)c1)NCCc1cccc(F)c1 label_class="true (1)"
molecule=Cc1cn2c(NC(C)(C)C)c(-c3ccc(C#Cc4ccccn4)cc3)nc2s1 label_class="true (1)"
molecule=CC(C)(C)Nc1c(-c2ccc(C#Cc3cccc(OC(F)(F)F)c3)s2)nc2cnccn12 label_class="false (0)"
molecule=O=C(C#Cc1cccc(Cl)c1)NCCc1ccccc1C(F)(F)F label_class="false (0)"
molecule=CC(C)(C)CC(C)(C)Nc1c(-c2ccc(C#Cc3ccccn3)s2)nc2cnccn12 label_class="false (0)"

## Input # TODO verify IC50 < 30 nM strictly for this molecule: CN(c1nccs1)C1CCN(C(=O)C#Cc2ccccc2)C1 (stereo not drawn)
## Output false (0)

## Input A record lists CC(Cc1cccnc1)NC(=O)C#Cc1cccc(Cl)c1 (stereo not drawn) . Is its IC50 below 30 nM?
## Output true (1)

## Input Quick check: does "CC(C)CNc1c(-c2ccc(C#Cc3ccccc3)s2)nc2cnccn12" have IC50 under 30 nM?
## Output false (0)

## Input In plain terms, does "CC(C)(C)Nc1c(-c2ccc(C#Cc3cccc(C=O)c3)s2)nc2cnccn12" come in under 30 nM for IC50?
## Output true (1)

###

Literature survey of IC50 (system: mGluR5 receptor (Sus scrofa)).
Answer in nM, number only, no unit symbol.

Take a look at these entries with their results.
given_smiles=Cc1ccc(CCN(C)C(=O)C#Cc2cccc(Cl)c2)cc1 u=nM assay_value=280
given_smiles=CC(C)(C)Nc1c(-c2ccc(C#Cc3ccccc3)o2)nc2cnccn12 u=nM assay_value=1740
given_smiles=CC(C)(C)Nc1c(-c2ccc(C#Cc3ncccc3F)s2)nc2sccn12 u=nM assay_value=13
given_smiles=CCOC(=O)c1cnc(N(C)CCNC(=O)C#Cc2cccc(Cl)c2)s1 u=nM assay_value=150
given_smiles=O=C(C#Cc1cccc(Cl)c1)N1CCCc2ccccc2C1 u=nM assay_value=110

Here's the next entry for you.
## Input Give IC50 (mGluR5 receptor (Sus scrofa)) of the following molecule: "CC(C)(C)Nc1c(-c2ccc(C#Cc3ccccc3O)s2)nc2cnccn12"
## Output 2990

###

Below: molecules with IC50 recorded for UniProt I3LUI7 in separate published works.
Kindly apply the following: true if IC50 is less than 30 nM, false in every other case.

molecule="CC1Cc2ccccc2CN1C(=O)C#Cc1cccc(Cl)c1 (stereo not shown)" label_class=false
molecule=COc1cccnc1C#Cc1ccc(-c2nc3ccccn3c2NC(C)(C)C)s1 label_class=false
molecule=Cc1ncccc1CCNC(=O)C#Cc1cccc(Cl)c1 label_class=false
molecule=CN(CCN(C)c1nccs1)C(=O)C#Cc1cccc(Cl)c1 label_class=true
molecule=CCCCNc1c(-c2ccc(C#Cc3ccccc3)s2)nc2cnccn12 label_class=false

## Input Determine if "COc1ccc2c(c1)CCN(C(=O)C#Cc1cccc(Cl)c1)C2" shows IC50 strictly lower than 30 nM.
## Output false

## Input Dear reviewer, please state whether CC(Cc1ccccc1)NC(=O)C#Cc1cccc(Cl)c1 (stereo not shown) has IC50 strictly beneath 30 nM.
## Output true

## Input # check: IC50 < 30 nM for "CC(C)(C)Nc1c(-c2ccc(C#Cc3cc(C#N)ccc3F)s2)nc2cnccn12"
## Output true

## Input Consider "CN(CCn1cccc1)C(=O)C#Cc1cccc(Cl)c1" . Does its IC50 lie strictly below 30 nM?
## Output false

## Input Strictly below 30 nM in IC50? "COc1cccc2c1CCN(C(=O)C#Cc1cccc(Cl)c1)C2"
## Output true

###

// read-out pIC50, gathered for UniProt:I3LUI7 from published studies
pIC50: −log10 of the molar value.
Quick rule: pIC50 of at least 7 means class 1, below that means class 0.

Some entries whose results are on file:
molecule=CN(CCN(C)c1nccs1)C(=O)C#Cc1ccccc1 experimental_target=UniProt:I3LUI7 label_class="class 1"
molecule=CC(C)(C)Nc1c(-c2ccc(C#Cc3ccncc3)s2)nc2sccn12 experimental_target=UniProt:I3LUI7 label_class="class 1"
molecule=O=C(C#Cc1ccccc1)N1CCCN(c2nccs2)CC1 experimental_target=UniProt:I3LUI7 label_class="class 0"

## Input Check if pIC50 >= 7 (inclusive). Item: O=C(C#Cc1ccccc1)N1CC2CN(c3nccs3)CC2C1 (stereo not shown)
## Output class 0

## Input Entry "CN(CCc1ccncc1)C(=O)C#Cc1cccc(Cl)c1" : is its pIC50 no less than 7?
## Output class 1

## Input Hi, just wondering whether "CN(CCc1ccccc1C(F)(F)F)C(=O)C#Cc1cccc(Cl)c1" shows pIC50 of 7 or higher.
## Output class 1

## Input Textbook exercise: given the entry "O=C(C#Cc1cccc(Cl)c1)NCCc1ccccn1" , state whether its pIC50 is greater than or equal to 7.
## Output class 1

## Input Has "CN(CCNC(=O)C#Cc1cccc(Cl)c1)c1nc(Br)cs1" a recorded pIC50 greater than or equal to 7?
## Output class 1
